Biological target: Nonstructural protein 3 (Zika virus, UniProt A0A024AXB9)
Sequence (A0A024AXB9 whole entry, the tested form may be a part): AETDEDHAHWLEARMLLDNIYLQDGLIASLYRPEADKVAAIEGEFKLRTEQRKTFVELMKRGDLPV
Assay: Inhibition of C-terminal His6-tagged unlinked Zika virus NS2B-NS3 protease domain expressed in Escherichia coli Bl21(DE3) using Bz-Nle-Lys-Lys-Arg-AMC as substrate after 30 mins by fluorophotometric method
Positions of bridges follow the written chain, without caps; N, C: chain ends. Non-standard residues stand in square brackets, D forms with d. Residues, ends and D or L forms follow the SMILES beside them. NMeY = CN[C@@H](Cc1ccc(O)cc1)C(=O)O; NMeF = CN[C@@H](Cc1ccccc1)C(=O)O; NMeS = CN[C@@H](CO)C(=O)O; Sar = CNCC(=O)O
QUANTITY: IC50 (nM)
// units = nM; emit number, no label

>>> data_value("COc1ccc(C[C@H]2C(=O)N[C@@H](CCCCN)C(=O)N(C)[C@@H](Cc3ccccc3)C(=O)N[C@@H](CCCCN)C(=O)N(C)[C@@H](CO)C(=O)N(C)[C@@H](Cc3ccc(OC)cc3)C(=O)N[C@@H](CCCCN)C(=O)N(C)[C@@H](Cc3ccc(OC)cc3)C(=O)N(C)[C@@H](Cc3ccc(OC)cc3)C(=O)N[C@@H](CCCCN)C(=O)N[C@H](C(N)=O)CSCC(=O)N[C@@H](Cc3ccc(O)cc3)C(=O)N2C)cc1 ({CH2CO}-Y[NMeY](Me)K[NMeF]K[NMeS][NMeY](Me)K[NMeY](Me)[NMeY](Me)KC-NH2; thioether N-12)")
250

Now for the compound whose IC50 we want.
query: Reported IC50 for Nonstructural protein 3 (Zika virus, UniProt A0A024AXB9), given CC[C@H](C)[C@@H]1NC(=O)CN(C)C(=O)[C@H](Cc2ccc(O)cc2)NC(=O)CSC[C@@H](C(N)=O)NC(=O)[C@@H]2CCCN2C(=O)[C@H]([C@@H](C)CC)NC(=O)[C@H](Cc2ccc(OC)cc2)N(C)C(=O)[C@H](Cc2ccc(OC)cc2)N(C)C(=O)[C@H](CC(N)=O)NC(=O)[C@H](Cc2ccc(O)cc2)NC(=O)[C@H](CCCCN)NC(=O)[C@H](C)NC1=O ({CH2CO}-Y[Sar]IAKYN[NMeY](Me)[NMeY](Me)IPC-NH2; thioether N-12) ?
result: 4600
